So I've got a bunch of molecules here, and I need their pIC50 values.
test system: 280 human cancer cell lines; assay: OncoPanel cell proliferation assay (10-day); format: cell-based; details: Homo sapiens, ChaGo-K-1, ChaGoK1, Lung - NSCLC; read-out: Cell Count IC50
Units for pIC50: none; it is -log10 of a concentration expressed in mol/L.

pIC50 in this record for CC(C)=CCC[C@H](C)[C@@H]1CC[C@@H](C)c2c1cc(C)c(O)c2O [Compound 4, 7,8-dihydroxyserrulat-14-ene] : 5.05

pIC50 in this record for CC(C)=CCC[C@@H]1C(O)Oc2c(C)cc(O)c3c2[C@H]1CC[C@H]3C (stereo partly drawn) : 5.08

pIC50 in this record for CC(C)=CCC[C@H](CO)[C@@H]1CC[C@@H](C)c2c1cc(C)c(O)c2O [Compound 1, 7,8,18-trihydroxyserrulat-14-ene] : 5.81
